tested on: RARa:RXR (NR concentration 270 nM, RXRa partner concentration 90 nM); assay: PBM binding z-score (relative to random genomic background probes); higher = stronger binding; sequences stand for … in GC…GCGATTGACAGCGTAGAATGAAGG
measured.quantity: PBM binding z-score
Number, no unit, nothing else.

# query: PBM binding z-score of entry `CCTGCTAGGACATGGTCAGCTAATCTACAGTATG` -0.925

# query: PBM binding z-score of entry `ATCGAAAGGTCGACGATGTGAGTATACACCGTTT` 3.17

# query: PBM binding z-score of entry `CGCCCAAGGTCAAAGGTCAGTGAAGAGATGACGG` 8.49

# query: PBM binding z-score of entry `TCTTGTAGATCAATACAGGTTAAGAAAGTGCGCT` 1.1

# query: PBM binding z-score of entry `TCTTGTAGATCAGCAGGTTGAGAAAGCTGGCCAA` 0.426

# query: PBM binding z-score of entry `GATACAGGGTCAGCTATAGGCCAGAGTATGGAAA` 3.35

# query: PBM binding z-score of entry `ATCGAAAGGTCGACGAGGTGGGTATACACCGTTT` 2.98

# query: PBM binding z-score of entry `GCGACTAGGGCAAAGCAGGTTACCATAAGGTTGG` 0.775

# query: PBM binding z-score of entry `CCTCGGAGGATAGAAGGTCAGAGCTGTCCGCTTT` 1.82

# query: PBM binding z-score of entry `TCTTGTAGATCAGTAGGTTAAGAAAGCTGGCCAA` 0.921

# query: PBM binding z-score of entry `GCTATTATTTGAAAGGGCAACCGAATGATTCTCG` 1.07

# query: PBM binding z-score of entry `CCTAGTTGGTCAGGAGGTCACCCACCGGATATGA` 4.11

# query: PBM binding z-score of entry `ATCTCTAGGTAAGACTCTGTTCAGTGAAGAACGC` 0.421

# query: PBM binding z-score of entry `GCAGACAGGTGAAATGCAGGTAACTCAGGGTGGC` 0.324

# query: PBM binding z-score of entry `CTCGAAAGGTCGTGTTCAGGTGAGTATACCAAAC` 3.85

# query: PBM binding z-score of entry `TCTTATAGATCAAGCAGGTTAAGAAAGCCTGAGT` 0.658

# query: PBM binding z-score of entry `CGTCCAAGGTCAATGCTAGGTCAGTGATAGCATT` 6.2

# query: PBM binding z-score of entry `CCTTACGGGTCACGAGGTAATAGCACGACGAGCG` 5.59

# query: PBM binding z-score of entry `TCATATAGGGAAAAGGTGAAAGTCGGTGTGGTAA` 2.17

# query: PBM binding z-score of entry `CCTCAAAGTTCAAGGTAACGTAACAGAAAGCAGC` 3.49

# query: PBM binding z-score of entry `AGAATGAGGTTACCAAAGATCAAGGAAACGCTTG` 2.48

# query: PBM binding z-score of entry `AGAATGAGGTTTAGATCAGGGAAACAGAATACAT` -0.0668

# query: PBM binding z-score of entry `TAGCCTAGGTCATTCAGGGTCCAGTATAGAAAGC` 2.84

# query: PBM binding z-score of entry `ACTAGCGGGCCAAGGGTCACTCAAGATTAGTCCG` 4.1

# query: PBM binding z-score of entry `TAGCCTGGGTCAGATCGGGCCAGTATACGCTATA` 0.69

# query: PBM binding z-score of entry `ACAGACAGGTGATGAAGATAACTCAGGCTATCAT` -0.227

# query: PBM binding z-score of entry `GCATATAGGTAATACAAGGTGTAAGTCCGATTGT` 0.0684

# query: PBM binding z-score of entry `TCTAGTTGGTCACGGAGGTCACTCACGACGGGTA` 3.6

# query: PBM binding z-score of entry `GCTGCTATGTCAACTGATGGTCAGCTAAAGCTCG` -0.149

# query: PBM binding z-score of entry `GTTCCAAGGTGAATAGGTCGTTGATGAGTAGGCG` 2.05

# query: PBM binding z-score of entry `TGGAGTAGGTTAGTCGGGGCATTCAGCCAACATA` 0.374

# query: PBM binding z-score of entry `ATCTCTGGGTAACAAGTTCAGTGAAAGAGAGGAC` 0.922

# query: PBM binding z-score of entry `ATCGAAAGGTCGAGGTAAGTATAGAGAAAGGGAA` 3.24

# query: PBM binding z-score of entry `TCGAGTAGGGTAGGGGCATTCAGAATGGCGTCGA` 0.405

# query: PBM binding z-score of entry `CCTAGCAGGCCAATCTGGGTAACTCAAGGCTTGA` -0.329

# query: PBM binding z-score of entry `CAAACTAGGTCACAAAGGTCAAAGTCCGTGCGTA` 7.63

# query: PBM binding z-score of entry `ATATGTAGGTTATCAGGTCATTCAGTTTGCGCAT` 3.2

# query: PBM binding z-score of entry `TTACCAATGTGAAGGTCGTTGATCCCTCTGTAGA` 1.45

# query: PBM binding z-score of entry `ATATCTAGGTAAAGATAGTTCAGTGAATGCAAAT` 0.384

# query: PBM binding z-score of entry `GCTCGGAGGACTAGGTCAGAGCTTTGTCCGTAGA` -0.285

# query: PBM binding z-score of entry `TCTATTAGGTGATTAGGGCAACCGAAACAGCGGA` 0.593

# query: PBM binding z-score of entry `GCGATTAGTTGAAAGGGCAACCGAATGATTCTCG` 1.43

# query: PBM binding z-score of entry `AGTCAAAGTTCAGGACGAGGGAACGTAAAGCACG` 2.09

# query: PBM binding z-score of entry `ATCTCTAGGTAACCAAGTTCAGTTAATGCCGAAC` 1.24

# query: PBM binding z-score of entry `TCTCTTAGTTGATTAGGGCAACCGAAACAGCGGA` 0.892

# query: PBM binding z-score of entry `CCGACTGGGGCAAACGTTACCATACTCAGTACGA` -0.168

# query: PBM binding z-score of entry `TGAATGAGGTTATTAGATCAGGGAACGTTGCAAA` 1.43

# query: PBM binding z-score of entry `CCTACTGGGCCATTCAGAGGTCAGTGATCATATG` 2.64

# query: PBM binding z-score of entry `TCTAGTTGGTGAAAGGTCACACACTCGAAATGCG` 7.3

# query: PBM binding z-score of entry `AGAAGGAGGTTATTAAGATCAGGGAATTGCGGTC` 0.985

# query: PBM binding z-score of entry `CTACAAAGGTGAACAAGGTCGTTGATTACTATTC` 3.61
